Target: recombinant human Myt1 (Homo sapiens (Human))
Sequence (Q99640 whole entry): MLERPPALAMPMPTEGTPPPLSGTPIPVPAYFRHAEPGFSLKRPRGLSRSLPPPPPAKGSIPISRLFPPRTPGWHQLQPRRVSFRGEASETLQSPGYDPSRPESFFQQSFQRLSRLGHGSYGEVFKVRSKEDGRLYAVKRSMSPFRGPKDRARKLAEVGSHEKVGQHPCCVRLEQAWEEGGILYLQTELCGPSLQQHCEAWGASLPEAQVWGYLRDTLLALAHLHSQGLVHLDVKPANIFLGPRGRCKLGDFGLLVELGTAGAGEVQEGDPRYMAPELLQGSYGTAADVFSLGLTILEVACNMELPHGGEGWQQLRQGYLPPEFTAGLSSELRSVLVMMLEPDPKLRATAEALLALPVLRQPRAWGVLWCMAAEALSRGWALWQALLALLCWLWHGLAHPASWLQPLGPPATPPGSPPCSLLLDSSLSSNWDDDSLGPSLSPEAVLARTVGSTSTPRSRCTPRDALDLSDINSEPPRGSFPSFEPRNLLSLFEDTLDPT
Test: Myt1 enzymatic assay (ADP-Glo kinase assay)
Details: recombinant human Myt1 18 nM, ATP 10 μM
Metric: pIC50
Numbers only, as −log10 of the molar value.

Compound	Experimental Target	pIC50
Nc1c(-c2cccc3[nH]ncc23)cc(-c2cccnn2)c2nc[nH]c(=O)c12 [Compound 131]	recombinant human Myt1 (Homo sapiens (Human))	7.15
Nc1c(-c2cccc3[nH]ncc23)cc(-c2cnn(CC3CC3)c2)c2nc(-c3ccncc3)[nH]c(=O)c12 [Compound 68]	recombinant human Myt1 (Homo sapiens (Human))	8.22
Nc1c(-c2cccc3[nH]ncc23)cc(-n2ccc(C3CCOCC3)n2)c2nc(-c3cccnc3)[nH]c(=O)c12 [Compound 76]	recombinant human Myt1 (Homo sapiens (Human))	8.10

Turning to the following compound.
Tested on recombinant human Myt1 (Homo sapiens (Human)): Cc1ccc(O)cc1-c1cc(-c2nc(CN3CCOCC3)cs2)c2c(c1N)C(=O)NC2 [Compound 146] . Observed pIC50: 6.87

---

Please go through the items and note down their pIC50.
Target: recombinant human Myt1 (Homo sapiens (Human))
Experiment: Myt1 enzymatic assay (ADP-Glo kinase assay)
Conditions: recombinant human Myt1 18 nM, ATP 10 μM
Experimental: Detection of Myt1 kinase activity utilized a recombinant human Myt1 kinase assay measuring the hydrolysis of ATP using a commercially available ADP-Glo Assay (ADP-Glo™ Kinase Assay from Promega, 10 000 assays, #V9102). […] Luminescence was read using the Envision (250 ms integration). The IC50 and the % max inhibition were calculated for each inhibitor compound tested.
One number for each entry, as −log10 of the molar value.

Answered cases to consult:
Compound	pIC50
Cc1ccc2[nH]ncc2c1-c1cc(-c2cccc(OC[C@@H]3COCCO3)n2)c2nc[nH]c(=O)c2c1N	7.96
Cc1ccc(O)c(C)c1-c1cc(Br)c2c(c1N)C(=O)NC2	7.04
Cc1ccc(O)cc1-c1cc(-c2ccccn2)c2nc[nH]c(=O)c2c1N	7.29
Nc1c(-c2cccc3[nH]ncc23)cc(Br)c2nc(-c3ccc(N4CCNCC4)nc3)[nH]c(=O)c12	8.52
Nc1c(-c2cccc3[nH]ncc23)cc(-c2nccs2)c2nc[nH]c(=O)c12	8.40

Each of the following entries comes with a recorded value; kindly state pIC50 for each.
1. Cc1ccc(O)c(C)c1-c1cc(C2CC2)c2nc(-c3ccncc3)[nH]c(=O)c2c1N [Compound 134]
2. Cc1ccc(O)cc1-c1cc(-c2nc(C#N)cs2)c2c(c1N)C(=O)NC2
3. Nc1c(-c2cccc3[nH]ncc23)cc(-c2cnn(C3CCOCC3)c2)c2nc(-c3cccnc3)[nH]c(=O)c12
4. Cc1ccc(O)cc1-c1ccc2c(c1N)C(=O)NC2
5. Cc1ccc2[nH]ncc2c1-c1cc(-c2cccc(OC[C@H]3COCCO3)n2)c2nc[nH]c(=O)c2c1N
6. Cc1ccc2[nH]ncc2c1-c1cc(-c2cccc(OCc3ncccn3)n2)c2nc[nH]c(=O)c2c1N
7. Cc1ccc(-c2nc3c(-c4nccs4)cc(-c4cccc5[nH]ncc45)c(N)c3c(=O)[nH]2)cc1
8. Cc1ccc(O)cc1-c1cc(-c2ncc(C(=O)N3CCOCC3)s2)c2c(c1N)C(=O)NC2

Result block:
1. 8.30
2. 6.63
3. 8.40
4. 4.80
5. 8.00
6. 8.00
7. 7.48
8. 6.17

Record pIC50 per entry; entries follow.
1. CC(=O)N1CC=C(c2cc(-c3cccc4[nH]ncc34)c(N)c3c(=O)[nH]c(-c4ccncc4)nc23)CC1
2. Nc1c(-c2cccc3[nH]ncc23)cc(-c2cccc(OCc3ncco3)c2)c2nc[nH]c(=O)c12

Result block:
8.70
8.00
